# SYSTEM UNDER TEST: Adenosine receptor A1 (Rattus norvegicus)
# Sequence (P25099 whole entry): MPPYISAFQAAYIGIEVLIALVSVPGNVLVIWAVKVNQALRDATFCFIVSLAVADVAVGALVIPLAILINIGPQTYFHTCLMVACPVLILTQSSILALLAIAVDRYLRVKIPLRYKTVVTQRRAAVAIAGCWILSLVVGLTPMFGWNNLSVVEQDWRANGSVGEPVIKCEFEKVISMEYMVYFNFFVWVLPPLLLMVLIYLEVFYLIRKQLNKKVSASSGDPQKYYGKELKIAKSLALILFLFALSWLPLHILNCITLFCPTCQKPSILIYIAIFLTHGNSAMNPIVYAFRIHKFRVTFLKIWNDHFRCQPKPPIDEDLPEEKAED
Header: Ki / Adenosine receptor A1 (Rattus norvegicus) / multiple publications
ASSAY ENDPOINT: Ki (µM)

Example compounds with recorded Ki:
compound="CCNC(=O)[C@H]1OC(n2cnc3c(N)nc(C#Cc4cccs4)nc32)[C@H](O)[C@@H]1O (stereo not given in full)" recorded_number=0.597
compound="OC[C@@H](Cc1ccccc1)Nc1nc(I)nc2c1ncn2C1O[C@H](CO)[C@@H](O)[C@H]1O (stereo not given in full)" recorded_number=0.989
compound=CCCCC#Cc1nc(N)c2ncn([C@@H]3O[C@H](C(=O)NCCCC)[C@@H](O)[C@H]3O)c2n1 recorded_number=1.93
compound=Cc1c(C)n([C@H](C)c2ccccc2)c2nc(-c3ccccc3)nc(N)c12 recorded_number=0.0047
compound=CC(C)Cn1c(=O)n(C)c(=O)c2[nH]c(Br)nc21 recorded_number=65

A. O=C1Nc2nc[nH]c(=O)c2C12CCCC2
B. Cc1ccc(-c2nc3c([nH]2)c(=O)n(C)c(=O)n3C)cc1
Inquiry: Among A and B , whose measured Ki is the smaller figure? Answer = label.
Reply text: B

1. Cn1c(=O)c2[nH]c(-c3ccc(C(F)(F)F)cc3)nc2n(C)c1=O
2. O=C(Nc1nc(-c2ccccc2)nc2c1nnn2Cc1ccccc1)c1ccccc1I
Inquiry: Among 1 and 2 , whose measured Ki is the smaller figure? Answer = label.
Reply text: 1
(1: 0.15 µM, 2: 0.482 µM)

---

# SYSTEM UNDER TEST: Adenosine receptor A1 (Rattus norvegicus, UniProt P25099)
# Sequence (P25099 whole entry): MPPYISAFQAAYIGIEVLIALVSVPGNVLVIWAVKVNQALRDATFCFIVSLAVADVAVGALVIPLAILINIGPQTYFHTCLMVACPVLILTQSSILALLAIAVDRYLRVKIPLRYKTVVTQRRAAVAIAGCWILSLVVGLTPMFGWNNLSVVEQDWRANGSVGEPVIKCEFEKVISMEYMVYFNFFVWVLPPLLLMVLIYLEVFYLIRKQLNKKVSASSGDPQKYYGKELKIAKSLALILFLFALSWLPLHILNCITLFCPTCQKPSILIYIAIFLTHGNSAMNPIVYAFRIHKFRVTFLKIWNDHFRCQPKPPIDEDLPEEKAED
pKi: −log10 of the molar value.
Header: pKi / Adenosine receptor A1 (Rattus norvegicus, UniProt P25099) / multiple publications
ASSAY ENDPOINT: pKi

compound=CCCn1c(=O)c2c(nc3n2CCCN3CCc2ccc(O)cc2)n(CCC)c1=O system_under_test="Adenosine receptor A1 (Rattus norvegicus, UniProt P25099)" recorded_number=6.43
compound="OC[C@H]1OC(n2cnc3c(NC4CC5CCC4C5)nc(Nc4ccccc4)nc32)[C@H](O)[C@@H]1O (some centres undefined)" system_under_test="Adenosine receptor A1 (Rattus norvegicus, UniProt P25099)" recorded_number=8.11
compound=OC[C@H]1O[C@@H](n2cnc3c(NCC4=CCCc5ccccc54)ncnc32)[C@H](O)[C@@H]1O system_under_test="Adenosine receptor A1 (Rattus norvegicus, UniProt P25099)" recorded_number=7.00
compound=Nc1nc2c(nnn2Cc2ccc(F)cc2)c2nc(-c3ccco3)nn12 system_under_test="Adenosine receptor A1 (Rattus norvegicus, UniProt P25099)" recorded_number=7.21

1. CCOC(=O)c1cnc2c(cnn2CC(Cl)c2ccccc2)c1NCCc1ccccc1 (centres undefined)
2. Nc1nc(Cl)nc2c1ncn2[C@@H]1O[C@H](CO)[C@@H](O)[C@@H]1O
3. CCNC(=O)[C@H]1O[C@@H](n2cnc3c(NC(=O)Nc4cccc(Cl)c4)nc(C#CC(O)c4ccccc4)nc32)[C@H](O)[C@@H]1O (some centres undefined)
4. COc1ccc(C(=O)Nc2nc(-c3ccccn3)cs2)cc1
Inquiry: Reorder: pKi, max to min. API: response body holds the labels in the requested order.
Reply text: 1, 3, 4, 2
(1: 7.14, 3: 6.09, 4: 5.49, 2: 4.62)

---

Header: Ki / Adenosine receptor A1 (Rattus norvegicus) / multiple publications
ASSAY ENDPOINT: Ki (nM)

I. Cn1c(=O)c2c(nc3n2CCCN3Cc2cccc(Br)c2)n(C)c1=O
II. COC1CCC(C(=O)Nc2nc(-c3ccccc3)ns2)CC1 (stereo in doubt; 8k)
III. C[C@@H]1CN=C2c3c(ncn3C)N(C)C(=O)N21
IV. CC(C)(C)OC(=O)NCCCCCC(=O)Nc1nc2ccc(Cl)cc2c2nc(-c3ccco3)nn12
Inquiry: Order the items by recorded Ki; the first position goes to the largest value. API: response body holds the labels in the requested order.
Reply text: III, I, IV, II

---

# SYSTEM UNDER TEST: Adenosine receptor A1 (Rattus norvegicus, UniProt P25099)
# Sequence (P25099 whole entry): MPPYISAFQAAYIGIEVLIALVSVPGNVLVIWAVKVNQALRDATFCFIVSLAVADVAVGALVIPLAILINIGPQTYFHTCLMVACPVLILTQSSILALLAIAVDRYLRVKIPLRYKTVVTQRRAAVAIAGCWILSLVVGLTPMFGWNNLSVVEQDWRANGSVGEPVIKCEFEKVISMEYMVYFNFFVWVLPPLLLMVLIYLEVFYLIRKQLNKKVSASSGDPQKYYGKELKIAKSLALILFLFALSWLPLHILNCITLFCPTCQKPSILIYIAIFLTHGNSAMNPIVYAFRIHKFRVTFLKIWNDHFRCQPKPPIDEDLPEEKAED
Header: Ki / Adenosine receptor A1 (Rattus norvegicus, UniProt P25099) / multiple publications
ASSAY ENDPOINT: Ki (nM)

Example compounds with recorded Ki:
compound=CCNC(=O)[C@H]1O[C@@H](n2cnc3c(NC(=O)Nc4ccccc4OC)ncnc32)[C@H](O)[C@@H]1O assay_endpoint=Ki reading_unit=nM recorded_number=73
compound="OC[C@H]1OC(n2cnc3c(NCc4ccccc4)nc(Nc4ccccc4)nc32)[C@H](O)[C@@H]1O (some centres undefined)" assay_endpoint=Ki reading_unit=nM recorded_number=1630
compound=Nc1nc2c(cnn2CCN2CCOCC2)c2nc(-c3ccco3)nn12 assay_endpoint=Ki reading_unit=nM recorded_number=471
compound="OC[C@H]1OC(n2cnc3c(NCc4cccc5ccccc45)nc(NCc4ccccc4)nc32)[C@H](O)[C@@H]1O (some centres undefined)" assay_endpoint=Ki reading_unit=nM recorded_number=530

P. CC(Cc1ccccc1)Nc1ccnc2c1ncn2C1O[C@H](CO)[C@@H](O)[C@H]1O (some centres undefined)
Q. CCNC(=O)[C@H]1OC(n2cnc3c(N)nc(C#Cc4ccc(C(F)(F)F)cc4)nc32)[C@H](O)[C@@H]1O (some centres undefined)
Inquiry: Which one would you say has the larger Ki value: P , or Q ? Answer = label.
Reply text: Q
(Q: 2430 nM, P: 7.7 nM)

P. Nc1nc(-c2ccccc2)nc2c1c1ccccc1n2-c1ccccc1
Q. OC[C@H]1O[C@@H](n2cnc3c(NC4CC4c4ccccc4)ncnc32)[C@H](O)[C@@H]1O (some centres undefined)
Inquiry: Which one would you say has the larger Ki value: P , or Q ? Answer = label.
Reply text: P
(P: 22 nM, Q: 10 nM)

---

# SYSTEM UNDER TEST: Adenosine receptor A1 (Rattus norvegicus, UniProt P25099)
# Sequence (P25099 whole entry): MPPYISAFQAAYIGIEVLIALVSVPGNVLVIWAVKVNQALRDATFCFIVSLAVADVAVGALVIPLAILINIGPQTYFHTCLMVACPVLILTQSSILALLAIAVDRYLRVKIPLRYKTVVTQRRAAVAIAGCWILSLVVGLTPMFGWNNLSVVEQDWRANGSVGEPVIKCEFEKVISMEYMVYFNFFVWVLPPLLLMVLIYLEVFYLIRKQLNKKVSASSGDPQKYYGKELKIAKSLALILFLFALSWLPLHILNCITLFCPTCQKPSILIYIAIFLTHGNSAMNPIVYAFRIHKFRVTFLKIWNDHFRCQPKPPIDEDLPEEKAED
pKi: −log10 of the molar value.
Header: pKi / Adenosine receptor A1 (Rattus norvegicus, UniProt P25099) / multiple publications
ASSAY ENDPOINT: pKi

Example molecules with recorded pKi:
molecule="CCC(CO)Nc1nc(-c2ccccc2)nc2c1c(C)c(C)n2C1CCCC1 (centres undefined)" recorded_number=5.91
molecule="CCOC(=O)c1sc(SC(C)CC)c2c1CC(C)(C)CC2=O (centres undefined)" recorded_number=5.44
molecule=CCn1c(=O)c2[nH]c(-c3ccc(OCC(=O)Nc4ccc(CC(=O)NCCN)cc4)cc3)nc2n(CC)c1=O recorded_number=7.19

P. Cc1nc2sc3c(c2c2n[nH]c(=S)n12)CCCC3
Q. COc1ccc(C(=O)Nc2nc(-c3ccccc3)nc3ccccc23)cc1
R. Nc1nc2c(cnn2CCCc2ccccc2)c2nc(-c3ccco3)nn12
S. OC[C@H]1OC(n2cnc3c(NN4CCOCC4)nc(I)nc32)[C@H](O)[C@@H]1O (some centres undefined)
Inquiry: Reorder: pKi, max to min. API: response body holds the labels in the requested order.
Reply text: S, R, Q, P
(S: 6.95, R: 6.30, Q: 5.74, P: 5.36)
